- System: MDA-MB-468 spheroids with HUVEC/MSC, viability
- assay overview: Anticancer human tumor MDA-MB-468 cell line growth inhibition [PI3K]; active = viability on the fitted dose curve at most 10% of control; inactive = the rest;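 also: spheroids exposed to agents for seven days before readout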
- test settings: second compound 0.316 µM; first compound 10 µM
Result category, one only: active, inactive

Check out these entries, answers already filled in.
[[record]]
compound = "CC(C)NCC(C(=O)N1CCN(c2ncnc3c2C(C)CC3O)CC1)c1ccc(Cl)cc1 (stereo not given) + COc1c(OCCCN2CCOCC2)ccc2c3n(c(=NC(=O)c4cnc(N)nc4)nc12)CCN3"
category_label = "inactive"

[[record]]
compound = "CC1(C)CCC(CN2CCN(c3ccc(C(=O)NS(=O)(=O)c4ccc(NCC5CCOCC5)c([N+](=O)[O-])c4)c(Oc4cnc5[nH]ccc5c4)c3)CC2)=C(c2ccc(Cl)cc2)C1 + Cc1nc(NC(=O)N2CCCC2C(N)=O)sc1-c1ccnc(C(C)(C)C(F)(F)F)c1"
category_label = "active"

[[record]]
compound = "CC1(C)CCC(CN2CCN(c3ccc(C(=O)NS(=O)(=O)c4ccc(NCC5CCOCC5)c([N+](=O)[O-])c4)c(Oc4cnc5[nH]ccc5c4)c3)CC2)=C(c2ccc(Cl)cc2)C1 + COc1c(OCCCN2CCOCC2)ccc2c3n(c(=NC(=O)c4cnc(N)nc4)nc12)CCN3"
category_label = "inactive"

[[record]]
compound = "Cn1nccc1Nc1nccc(-c2ccn(C(CO)c3ccc(Cl)c(F)c3)c(=O)c2)n1 (stereo not given) + Cc1nc(NC(=O)N2CCCC2C(N)=O)sc1-c1ccnc(C(C)(C)C(F)(F)F)c1"
category_label = "inactive"


Then there is this compound:
Assay result, entry C=CC(=O)N1CCN(c2nc(=O)n(-c3c(C)ccnc3C(C)C)c3nc(-c4c(O)cccc4F)c(F)cc23)C(C)C1 (stereo not given) + CC(Nc1ncnc2nc[nH]c12)c1cc2cccc(Cl)c2c(=O)n1-c1ccccc1 — outcome?
inactive

Reference for the values: PubChem BioAssay AID1963960
